FYI, the data here is from PubChem BioAssay (EPA / NIEHS).

Experiment: BSK_3C_VCAM1: BioMAP Diversity Plus: 3C Assay for Vascular cell adhesion molecule 1 (VCAM1) Biomarker Activity (AID 2282999)
Conditions: BioMAP 3C HUVEC, VCAM1 ELISA, cytokine-stimulated; actives raise or lower the signal
Experimental: BSK_3C is a cell-based, multiplexed-readout assay that uses umbilical vein endothelium, a human vascular primary cell, with measurements taken at 24 hours after chemical dosing in a 96-well plate.BSK_3C_VCAM1 is an assay component measured in the BSK_3C assay. It measures VCAM-1 antibody related to regulation of gene expression using ELISA technology.Data from the assay component BSK_3C_VCAM1 was analyzed into 1 assay endpoint. […]
Active and inactive are the calls of the source. Rule for the calls: active = hit-call score of the fitted dose curve at least 0.9, where 1 is the maximum; inactive = score below 0.9.
Labels: yes (1) for active, no (0) for inactive

>>> print(df.to_string())
                                    compound  label_class
 0                   O=c1[nH]cc(F)c(=O)[nH]1       no (0)
 1                       CC=Cc1ccc(O)c(OC)c1       no (0)
 2                        COC(=O)c1ccc(O)cc1       no (0)
 3                  Cc1cccc([N+](=O)[O-])c1C       no (0)
 4             CCOc1ccc2c(c1)C(C)=CC(C)(C)N2       no (0)
 5                 CC(=O)OC/C=C(\C)CCC=C(C)C       no (0)
 6                             Cc1cccc(C)c1O       no (0)
 7                                Nc1ccccc1N      yes (1)
 8                                CN1CCCC1=O       no (0)
 9  COCCOC[C@H](CC1(C(=O)NC2CCC(C(=O)O)CC2)CCCC1)C(=O)Oc1ccc2c(c1)CCC2 (some centres not stated)       no (0)
10  COc1ccc2c(c1)c(CC(=O)O)c(C)n2C(=O)c1ccc(Cl)cc1       no (0)
11                            CCCCCCCCCCCCCO      yes (1)

###

read-out: Transforming growth factor beta 1 (TGFb1), TGFB1 (gene 7040); assay: BSK_KF3CT_TGFb1: BioMAP Diversity Plus: KF3CT Assay for Transforming growth factor beta 1 (TGFb1) Biomarker Activity (AID 2283072); conditions: primary human keratinocytes with fibroblasts; actives raise or lower the signal
Activity calls are given as the source filed them. Rule for the calls: active = hit-call score of the fitted dose curve at least 0.9, where 1 is the maximum; inactive = score below 0.9.
REPORTED_ENDPOINT: outcome

                                   compound  result_value
0  FC(F)(F)C(F)(F)C(F)(F)C(F)(F)C(F)(F)C(F)(F)CCI      inactive
1     CC(C)c1ccc(C(=O)N=C(N)N)cc1S(C)(=O)=O      inactive
2                    CC(=O)OCCOCCOCCOC(C)=O      inactive
3  CC(=O)C(C)=CC1C(C)=CCCC1(C)C (configuration not stated)      inactive
4  CC(CO)OC(C)CO (configuration not stated) (tested in a mixture with another compound)      inactive
5                     CC(=O)Oc1ccccc1C(=O)O      inactive
6                                CCCCCCCC=O      inactive
